System: biotinyl-Ile-oxazolone
assay summary: self-aminoacylation, catalytic enhancement (BIO) (fold over background); higher = more active; k-Seq, kA / k0A0; sequences stand for … in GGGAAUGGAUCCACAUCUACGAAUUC…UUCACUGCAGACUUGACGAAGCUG
This sample holds only a part of the variants without activity.
measurement name: self-aminoacylation
Keep the answer to the number alone.

Asked: Could you please provide reported self-aminoacylation for AAGUAUGCUAAUAUUCGCAAG [Fam3.1 aminoacylation ribozyme variant] ? Thanks!
Given back: 1.95

Asked: For the sequence AAGUUAGCAAAUAGUCGCAAG [Fam3.1 aminoacylation ribozyme variant] , give its reported self-aminoacylation.
Given back: 1.42

Asked: Read the entry CUACUUCAAAAAAUCGGUGUG [Fam1A.1 aminoacylation ribozyme variant] and write its reported self-aminoacylation.
Given back: 0.889

Asked: Using known records, supply self-aminoacylation for GUUCAGCUAGGUCAUCGGGUG [Fam2.2 aminoacylation ribozyme variant]
Given back: 3.97

Asked: // fetch self-aminoacylation given entry ACACACUUCAAGCAAUCGCUC [Fam1B.1 aminoacylation ribozyme variant]
Given back: 1.84

Asked: Return the recorded self-aminoacylation value; entry: AACUAUGCUAAUAGUCGCAAG [Fam3.1 aminoacylation ribozyme variant]
Given back: 2.41

Asked: Look up and state reported self-aminoacylation for GUACUUCAAACAAUCGUUCUG [Fam1A.1 aminoacylation ribozyme variant]
Given back: 1.15

---

Tested on: biotinyl-Phe-oxazolone
assay summary: self-aminoacylation, catalytic enhancement (BFO) (fold over background); higher = more active; k-Seq, kA / k0A0; sequences stand for … in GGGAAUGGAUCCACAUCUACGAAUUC…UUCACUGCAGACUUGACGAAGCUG
Fewer inactive variants are shown than the library holds.
Returns one of label 1 or label 0; label 1 when self-aminoacylation is >= 8.

Asked: Dear colleague, could you confirm whether AAGUUUGAUAAUGGUCGCAAG [Fam3.1 aminoacylation ribozyme variant] has self-aminoacylation at or above 8?
Given back: label 0

Asked: Determine whether this sequence has self-aminoacylation no lower than 8: AUUCACAUAGGUCAUUGGGUG [Fam2.2 aminoacylation ribozyme variant]
Given back: label 1

Asked: Identify whether the reported self-aminoacylation of the following sequence is 8 or greater: AAAUUUGCUAAUAGUCGCAAG [Fam3.1 aminoacylation ribozyme variant]
Given back: label 0

Asked: Does the reported self-aminoacylation for AUUCACCUAUGUCAUCCGGUG [Fam2.2 aminoacylation ribozyme variant] fall at or above the 8 mark?
Given back: label 1

Asked: API: above_or_equal(metric=self-aminoacylation, cutoff=8) for item AAGUAUGCUAAUAGUAGCAAG [Fam3.1 aminoacylation ribozyme variant]
Given back: label 0

Asked: Has UUUCACCUAGGUCAUGGGGUG [Fam2.2 aminoacylation ribozyme variant] a recorded self-aminoacylation greater than or equal to 8?
Given back: label 1

Asked: Does the sequence AUUGACCUAGGUCAACGGGUG [Fam2.2 aminoacylation ribozyme variant] have recorded self-aminoacylation that is 8 or more?
Given back: label 1

---

Test system: biotinyl-Phe-oxazolone
assay summary: self-aminoacylation, catalytic enhancement (BFO) (fold over background); higher = more active; k-Seq, kA / k0A0; sequences stand for … in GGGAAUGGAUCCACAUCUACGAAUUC…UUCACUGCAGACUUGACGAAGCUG
This sample holds only a part of the variants without activity.
So basically: self-aminoacylation at 3 or higher? That is Condition met. Lower than 3? That is Condition not met.

Asked: Determine whether this sequence has self-aminoacylation no lower than 3: CUACUUCAAACAAUCGGUCAC [Fam1A.1 aminoacylation ribozyme variant]
Given back: Condition met

Asked: Is reported self-aminoacylation greater than or equal to 3 here: CCCCACUUCAAGCAAUCGGUU [Fam1B.1 aminoacylation ribozyme variant]
Given back: Condition met

Asked: Determine whether measured self-aminoacylation meets or exceeds 3 for AUUACCCUGGUCCCCGAGUGA [Fam2.1 aminoacylation ribozyme variant]
Given back: Condition met

Asked: Tell me whether self-aminoacylation is at least 3 here: AUUAUCCUGAUCAUCGAGUGA [Fam2.1 aminoacylation ribozyme variant]
Given back: Condition met

Asked: Does self-aminoacylation meet or surpass 3 for CCACAUUUCAAGCAAUUGGUC [Fam1B.1 aminoacylation ribozyme variant] ?
Given back: Condition not met

Asked: Determine whether this sequence has self-aminoacylation no lower than 3: CUACUUAAAACAAUCGCUCUG [Fam1A.1 aminoacylation ribozyme variant]
Given back: Condition not met

Asked: Assess whether reported self-aminoacylation for AUGUUUGCUACUAGUCGCAAG [Fam3.1 aminoacylation ribozyme variant] sits at 3 or higher.
Given back: Condition not met

Asked: Tell me whether self-aminoacylation is at least 3 here: AAGUCUGCUAAUAGUCGCAAG [Fam3.1 aminoacylation ribozyme variant]
Given back: Condition met

Asked: Assess whether reported self-aminoacylation for AAGUUUGCUAAUAGUCGUGAG [Fam3.1 aminoacylation ribozyme variant] sits at 3 or higher.
Given back: Condition not met

Asked: Decide: is the reported value of self-aminoacylation for AUUCAACUAGGUCAUCGGUUG [Fam2.2 aminoacylation ribozyme variant] equal to or greater than 3?
Given back: Condition not met

Asked: Check if self-aminoacylation >= 3 (inclusive). Item: AUUCACCUAGGUUAUUGGGUG [Fam2.2 aminoacylation ribozyme variant]
Given back: Condition met

Asked: Threshold query (self-aminoacylation >= 3) on AUUAGUCUGGUCAUCGAGUGA [Fam2.1 aminoacylation ribozyme variant]
Given back: Condition met

Asked: Please check the record CUACUUCAAACAAUCGGUCUU [Fam1A.1 aminoacylation ribozyme variant] and state if its self-aminoacylation is at or above 3.
Given back: Condition met
